- Test system: HNSC
- Measurement Protocol: growth inhibition (% activity, log2 RLU normalised to DMSO / staurosporine); higher = more growth inhibition
- Condition Label: 33 µM
Please respond with reported growth inhibition for every item in the list.
Answers are plain numbers, in %.

Look at each compound and report its growth inhibition.
1. COc1ccc(O)cc1
2. CC/C(=C(\c1ccccc1)c1ccc(OCCN(C)C)cc1)c1ccccc1
3. CC1=NN(c2ccccc2)C(=O)C1
4. Cc1cn(C2C=CC(CO)O2)c(=O)[nH]c1=O (stereo not given)
5. CCCC1O[C@@H]2C[C@H]3[C@@H]4CCC5=CC(=O)C=C[C@]5(C)[C@H]4[C@@H](O)C[C@]3(C)[C@]2(C(=O)CO)O1 (stereo not given in full)
6. COC(=O)C1=C(C)NC(C)=C(C(=O)OC)C1c1ccccc1[N+](=O)[O-]
7. CC(=O)O[C@]1(C(C)=O)CC[C@H]2[C@@H]3C[C@H](C)C4=CC(=O)CC[C@]4(C)[C@H]3CC[C@@]21C

0.201
21
-4.84
1.41
-0.0191
8.49
31.3

Look at each compound and report its growth inhibition.
1. CC(=O)Oc1cc2c(s1)CCN(C(C(=O)C1CC1)c1ccccc1F)C2 (stereo not given)
2. CN1CC2c3ccccc3Oc3ccc(Cl)cc3C2C1 (stereo not given)
3. Cc1ccc(NC(=O)c2ccc(CN3CCN(C)CC3)cc2)cc1Nc1nc(-c2cccnc2)cs1
4. NCCNCCNCCNCCN

1. 0.528
2. 2.74
3. 9.74
4. 4.1

Look at each compound and report its growth inhibition.
1. CCOC(=O)n1ccn(C)c1=S
2. Clc1ccccc1C(c1ccccc1)(c1ccccc1)n1ccnc1

1. 0.384
2. 31.3

Look at each compound and report its growth inhibition.
1. CN(C)CCOC(C)(c1ccccc1)c1ccccn1 (stereo not given)
2. C#Cc1cccc(Nc2ncnc3cc(OCCOC)c(OCCOC)cc23)c1
3. Cn1c(=O)c2[nH]cnc2n(C)c1=O
4. COC(=O)C1=C(C)NC(C)=C(C(=O)OCC(C)C)C1c1ccccc1[N+](=O)[O-] (stereo not given)
5. CN1CCN(C2=Nc3cc(Cl)ccc3Nc3ccccc32)CC1
6. CC[C@@H]1/C=C(\C)C[C@H](C)C[C@H](OC)[C@H]2O[C@@](O)(C(=O)C(=O)N3CCCC[C@H]3C(=O)O[C@H](/C(C)=C/[C@@H]3CC[C@H](Cl)[C@H](OC)C3)[C@H](C)[C@@H](O)CC1=O)[C@H](C)C[C@@H]2OC
7. Cc1cn([C@H]2C[C@H](N=[N+]=[N-])[C@@H](CO)O2)c(=O)[nH]c1=O

1: -1.65; 2: 20.9; 3: -5.61; 4: 5.72; 5: -1.26; 6: 8.07; 7: 10.3

Look at each compound and report its growth inhibition.
1. Cc1cccc(C)c1NC(=O)C1CCCCN1C (stereo not given)
2. C=C1/C(=C\C=C2/CCC[C@]3(C)[C@@H]([C@H](C)CCCC(C)(C)O)CC[C@@H]23)C[C@@H](O)C[C@@H]1O

1: -1.45; 2: 2.64

Look at each compound and report its growth inhibition.
1. NC(Cc1cc(I)c(Oc2cc(I)c(O)c(I)c2)c(I)c1)C(=O)O (stereo not given)
2. CN1CCN(c2cc3c(cc2F)c(=O)c(C(=O)O)cn3-c2ccc(F)cc2)CC1

1. 27.8
2. 4.83

Look at each compound and report its growth inhibition.
1. COc1cc2ncnc(Nc3ccc(F)c(Cl)c3)c2cc1OCCCN1CCOCC1
2. CC(=O)SCC(Cc1ccccc1)C(=O)NCC(=O)OCc1ccccc1 (stereo not given)
3. CCOC(=O)[C@H](CCc1ccccc1)N[C@H]1CS[C@H](c2cccs2)CN(CC(=O)O)C1=O
4. CC1(C(=O)O)CCC2(C)CCC3(C)C(=CC(=O)C4C5(C)CCC(OC6OC(C(=O)O)C(O)C(O)C6OC6OC(C(=O)O)C(O)C(O)C6O)C(C)(C)C5CCC43C)C2C1 (stereo not given)
5. Cn1nnc2c(C(N)=O)ncn2c1=O

-1.23
-1.4
1.94
-2.93
9.79

Look at each compound and report its growth inhibition.
1. C[C@H]1c2cccc(O)c2C(=O)C2=C(O)[C@]3(O)C(=O)C(C(N)=O)=C(O)[C@@H](N(C)C)[C@@H]3[C@@H](O)[C@@H]21
2. CCCCCOC(=O)Nc1nc(=O)n([C@@H]2O[C@H](C)[C@@H](O)[C@H]2O)cc1F
3. NC(=O)CC[C@H](N)C(=O)O
4. CCC(=O)OCC(=O)[C@@]1(OC(=O)CC)[C@@H](C)C[C@H]2[C@@H]3CCC4=CC(=O)C=C[C@]4(C)[C@@]3(Cl)[C@@H](O)C[C@@]21C
5. C[C@@H](CN1CC(=O)NC(=O)C1)N1CC(=O)NC(=O)C1
6. CC(C[N+](C)(C)C)OC(N)=O (stereo not given)
7. NC(=O)c1cnccn1

25.5
-0.694
-2.34
0.321
2.52
-4.04
-0.255
